- Test system: MCF7
- experimental details: NCI-60 cytotoxicity, MCF7
- Assay type: cell-based, human
- test context: Homo sapiens; MCF7 (Breast), 72 h
value type: pIC50
Answers are plain numbers, as −log10 of the molar value.

Any idea what pIC50 was measured for `Cc1ccc([N+](=O)[O-])cc1S(=O)(=O)N(C)/N=C/c1cnc2ccc(Br)cn12` ?
6.62

====

- Tested on: SKOV3
- experimental details: NCI-60 cytotoxicity, SKOV3
- Format: cell-based, human
- test context: SKOV3 (Ovarian), 72 h
value type: IC50

O=C1NC(=NCc2cccs2)S/C1=C\c1ccc2ncccc2c1 = > 10 µM

Shift focus to the following entry.
Any idea what IC50 was measured for `O=C1NCCc2[nH]c(-c3ccncc3)cc21` ?
> 10 µM

====

- System: HCC-2998
- experimental details: NCI-60 cytotoxicity, HCC-2998
- Format: cell-based, human
- test context: Homo sapiens; HCC-2998 (Colon), 72 h
- Protocol: Briefly, human NCI-60 cancer cell lines were counted with a Vi-CELL Cell Viability Analyzer (Beckman Coulter), resuspended in RPMI-1640 medium containing 10% FBS and 1% penicillin/streptomycin and dispensed in wells of 96-well microplates (3000 cells per well for solid tumor and 5000 per well for blood tumor cells) using an epMotion 5075 liquid handler (Eppendorf) under a sterile condition, followed by incubation overnight at 37° C. in 5% (v/v) CO2. […]
value type: IC50

Reported IC50, compound Cc1ccc([N+](=O)[O-])cc1S(=O)(=O)N(C)/N=C/c1cnc2ccc(Br)cn12 [Compound 1] : ____
> 10 µM

====

- System: SF-539
- experimental details: NCI-60 cytotoxicity, SF-539
- Type: cell-based, human
- test context: Homo sapiens; SF-539 (CNS), 72 h
value type: pIC50
Answers are plain numbers, as −log10 of the molar value.

# get_value(readout='pIC50', item= `Cc1ccc([N+](=O)[O-])cc1S(=O)(=O)N(C)/N=C/c1cnc2ccc(Br)cn12` )
6.75

====

- Test system: SNB-75
- experimental details: NCI-60 cytotoxicity, SNB-75
- Type: cell-based, human
- test context: Homo sapiens; SNB-75 (CNS), 72 h
value type: IC50 (nM)
Give bare numbers, in nM.

What IC50 appears in the records for this compound with SNB-75? `Cc1ccc([N+](=O)[O-])cc1S(=O)(=O)N(C)/N=C/c1cnc2ccc(Br)cn12`
435

====

Would you mind telling me the reported IC50 of each entry?
- Tested on: A498
- experimental details: NCI-60 cytotoxicity, A498
- Format: cell-based, human
- test context: A498 (Renal), 72 h

O=C1NC(=NCc2cccs2)S/C1=C\c1ccc2ncccc2c1 = > 10 µM

# input molecule: `O=C1NCCc2[nH]c(-c3ccncc3)cc21` ; wanted: its IC50
> 10 µM

====

- System: HOP-92
- experimental details: NCI-60 cytotoxicity, HOP-92
- Format: cell-based, human
- test context: HOP-92 (Lung), 72 h
value type: IC50 (µM)
Answers are plain numbers, in µM.

O=C1NCCc2[nH]c(-c3ccncc3)cc21 [Compound A11] = 6.4

Now let's try a different one.
Consider the compound shown here: O=C1NC(=NCc2cccs2)S/C1=C\c1ccc2ncccc2c1 [Compound A10] What is its recorded IC50?
6.04

====

- Test system: OVCAR-5
- experimental details: NCI-60 cytotoxicity, OVCAR-5
- Format: cell-based, human
- test context: Homo sapiens; OVCAR-5 (Ovarian), 72 h
value type: pIC50
One number for each entry, as −log10 of the molar value.

Given `Cc1ccc([N+](=O)[O-])cc1S(=O)(=O)N(C)/N=C/c1cnc2ccc(Br)cn12` , state its recorded pIC50.
7.40

====

- Test system: K-562
- experimental details: NCI-60 cytotoxicity, K-562
- Type: cell-based, human
- test context: Homo sapiens, K562; K-562 (CML), 72 h
value type: pIC50
Answers are plain numbers, as −log10 of the molar value.

Would you mind telling me what pIC50 value was observed for `Cc1ccc([N+](=O)[O-])cc1S(=O)(=O)N(C)/N=C/c1cnc2ccc(Br)cn12` ?
6.38

====

- Tested on: SF-268
- experimental details: NCI-60 cytotoxicity, SF-268
- Type: cell-based, human
- test context: SF-268 (CNS), 72 h
pIC50: −log10 of the molar value.
Assignment: determine reported pIC50 for the given compounds.

O=C1NCCc2[nH]c(-c3ccncc3)cc21 [Compound A11] = < 5.00

Turning to the following compound.
Name the reported pIC50 value associated with the compound O=C1NC(=NCc2cccs2)S/C1=C\c1ccc2ncccc2c1 [Compound A10]
< 5.00

====

- Test system: TK-10
- experimental details: NCI-60 cytotoxicity, TK-10
- Format: cell-based, human
- test context: Homo sapiens; TK-10 (Renal), 72 h
value type: IC50 (nM)
Give bare numbers, in nM.

// returns reported IC50 for input Cc1ccc([N+](=O)[O-])cc1S(=O)(=O)N(C)/N=C/c1cnc2ccc(Br)cn12 [Compound 1]
805

====

- Tested on: MOLT-4
- experimental details: NCI-60 cytotoxicity, MOLT-4
- Type: cell-based, human
- test context: MOLT-4 (ALL), 72 h
Please go through the items and note down their pIC50.
One number for each entry, as −log10 of the molar value.

O=C1NC(=NCc2cccs2)S/C1=C\c1ccc2ncccc2c1 [Compound A10] = 5.28

Query the reported pIC50 for MOLT-4; item: O=C1NCCc2[nH]c(-c3ccncc3)cc21 [Compound A11]
5.16

====

- study system: p38δ (Homo sapiens, UniProt O15264)
- Sequence (O15264 whole entry): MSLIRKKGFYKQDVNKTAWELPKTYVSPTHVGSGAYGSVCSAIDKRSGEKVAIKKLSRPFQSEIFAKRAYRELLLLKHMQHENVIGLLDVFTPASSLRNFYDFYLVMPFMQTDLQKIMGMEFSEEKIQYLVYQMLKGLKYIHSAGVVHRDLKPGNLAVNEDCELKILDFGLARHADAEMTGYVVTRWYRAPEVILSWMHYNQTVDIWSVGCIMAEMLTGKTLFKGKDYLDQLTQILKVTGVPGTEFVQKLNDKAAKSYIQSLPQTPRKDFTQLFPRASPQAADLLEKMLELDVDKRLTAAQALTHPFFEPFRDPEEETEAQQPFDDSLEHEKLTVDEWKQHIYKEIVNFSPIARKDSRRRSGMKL
- experimental details: ADP-Glo in vitro kinase assay, p38δ
value type: IC50

Quick one: IC50 for Cc1ccc([N+](=O)[O-])cc1S(=O)(=O)N(C)/N=C/c1cnc2ccc(Br)cn12 [Compound 1] ?
0.0321 to 0.12 µM

====

- System: M14
- experimental details: NCI-60 cytotoxicity, M14
- Format: cell-based, human
- test context: M14 (Melanoma), 72 h
value type: pIC50
Give bare numbers, as −log10 of the molar value.

Entry O=C1NCCc2[nH]c(-c3ccncc3)cc21 [Compound A11] : reported pIC50 = ?
5.48

====

- Tested on: UACC257
- experimental details: NCI-60 cytotoxicity, UACC257
- Format: cell-based, human
- test context: UACC257 (Melanoma), 72 h
value type: IC50

O=C1NC(=NCc2cccs2)S/C1=C\c1ccc2ncccc2c1 [Compound A10] = > 10 µM

We next turn to a different compound, shown below.
IC50 lookup needed for O=C1NCCc2[nH]c(-c3ccncc3)cc21 [Compound A11] , thanks.
> 10 µM

====

- System: HOP-92
- experimental details: NCI-60 cytotoxicity, HOP-92
- Assay type: cell-based, human
- test context: Homo sapiens; HOP-92 (Lung), 72 h
value type: IC50 (nM)
One number for each entry, in nM.

Need IC50 of `Cc1ccc([N+](=O)[O-])cc1S(=O)(=O)N(C)/N=C/c1cnc2ccc(Br)cn12` , thanks.
94

====

- Test system: SK-MEL-2
- experimental details: NCI-60 cytotoxicity, SK-MEL-2
- Assay type: cell-based, human
- test context: SK-MEL-2 (Melanoma), 72 h
value type: IC50

O=C1NC(=NCc2cccs2)S/C1=C\c1ccc2ncccc2c1 = > 10 µM

# next compound below
Endpoint output: IC50 of `O=C1NCCc2[nH]c(-c3ccncc3)cc21` . Value?
> 10 µM

====

- System: SKOV3
- experimental details: NCI-60 cytotoxicity, SKOV3
- Assay type: cell-based, human
- test context: Homo sapiens, SK-OV-3; SKOV3 (Ovarian), 72 h
value type: IC50 (nM)
One number for each entry, in nM.

Quick one: IC50 of `Cc1ccc([N+](=O)[O-])cc1S(=O)(=O)N(C)/N=C/c1cnc2ccc(Br)cn12` ?
291

====

- Tested on: HCC-2998
- experimental details: NCI-60 cytotoxicity, HCC-2998
- Assay type: cell-based, human
- test context: HCC-2998 (Colon), 72 h
- Protocol: Briefly, human NCI-60 cancer cell lines were counted with a Vi-CELL Cell Viability Analyzer (Beckman Coulter), resuspended in RPMI-1640 medium containing 10% FBS and 1% penicillin/streptomycin and dispensed in wells of 96-well microplates (3000 cells per well for solid tumor and 5000 per well for blood tumor cells) using an epMotion 5075 liquid handler (Eppendorf) under a sterile condition, followed by incubation overnight at 37° C. in 5% (v/v) CO2. […]
pIC50: −log10 of the molar value.
value type: pIC50

O=C1NCCc2[nH]c(-c3ccncc3)cc21 = < 5.00

Reported pIC50, molecule `O=C1NC(=NCc2cccs2)S/C1=C\c1ccc2ncccc2c1` : ____
< 5.00

====

- Test system: OVCAR-8
- experimental details: NCI-60 cytotoxicity, OVCAR-8
- Assay type: cell-based, human
- test context: Homo sapiens; OVCAR-8 (Ovarian), 72 h
value type: IC50 (nM)
One number for each entry, in nM.

For the compound shown here, Cc1ccc([N+](=O)[O-])cc1S(=O)(=O)N(C)/N=C/c1cnc2ccc(Br)cn12 [Compound 1] , give the reported IC50.
59
